Data provenance is ChEMBL document CHEMBL4190374.

IC50 by entry:
Molecular target: Gamma-aminobutyric acid receptor subunit alpha-6/beta-3/gamma-2 (Rattus norvegicus, UniProt P18508+P30191+P63079)
Sequence (P18508 whole entry, one chain of several): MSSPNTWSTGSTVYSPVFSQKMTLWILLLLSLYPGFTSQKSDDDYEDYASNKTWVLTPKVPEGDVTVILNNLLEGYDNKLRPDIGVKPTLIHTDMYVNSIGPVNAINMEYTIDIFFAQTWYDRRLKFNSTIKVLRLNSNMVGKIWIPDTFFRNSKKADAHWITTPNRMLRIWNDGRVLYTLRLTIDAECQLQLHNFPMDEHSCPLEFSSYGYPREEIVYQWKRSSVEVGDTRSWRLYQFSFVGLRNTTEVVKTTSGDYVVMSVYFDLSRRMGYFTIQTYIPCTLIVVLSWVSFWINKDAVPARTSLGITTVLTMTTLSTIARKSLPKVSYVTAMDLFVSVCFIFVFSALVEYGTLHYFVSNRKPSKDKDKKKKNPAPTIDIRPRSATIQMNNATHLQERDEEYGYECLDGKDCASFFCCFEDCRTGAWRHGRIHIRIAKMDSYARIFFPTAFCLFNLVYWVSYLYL
Sequence (P30191 whole entry, one chain of several): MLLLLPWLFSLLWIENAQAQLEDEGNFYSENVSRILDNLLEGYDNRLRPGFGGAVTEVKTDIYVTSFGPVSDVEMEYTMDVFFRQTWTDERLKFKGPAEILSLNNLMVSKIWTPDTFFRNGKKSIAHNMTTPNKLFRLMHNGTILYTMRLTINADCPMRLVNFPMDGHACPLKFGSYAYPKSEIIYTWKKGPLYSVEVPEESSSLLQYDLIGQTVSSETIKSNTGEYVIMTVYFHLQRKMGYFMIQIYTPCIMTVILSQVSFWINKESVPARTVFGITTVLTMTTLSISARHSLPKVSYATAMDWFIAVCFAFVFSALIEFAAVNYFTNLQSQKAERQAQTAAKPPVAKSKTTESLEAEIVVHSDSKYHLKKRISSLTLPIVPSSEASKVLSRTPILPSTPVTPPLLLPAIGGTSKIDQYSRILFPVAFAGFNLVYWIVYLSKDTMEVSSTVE
Assay: Displacement of [3H]EBOB from rat GABA-A receptor alpha6beta3gamma2 expressed in HEK293 cell membranes after 90 mins by liquid scintillation counting analysis
Report as a plain number; the unit µM is understood.

Please look up its IC50: `O=C(Nc1c(-c2cccs2)nc2c(Br)cc(Br)cn12)c1ccc(Cl)cc1`
0.93

Others:
Please look up its IC50: `O=C(Nc1c(-c2cccs2)nc2ccc(Br)cn12)C1CCCCC1`
25

Please look up its IC50: `O=C(Nc1c(-c2cccs2)nc2c(Br)cc(Br)cn12)c1ccc(F)cc1`
3.39

Please look up its IC50: `CCCCOc1ccc(C(=O)Nc2c(-c3cccs3)nc3c(Br)cc(Br)cn23)cc1`
5.51

---

Target: Gamma-aminobutyric acid receptor subunit alpha-4/beta-3/delta (Rattus norvegicus, UniProt P18506+P28471+P63079)
Sequence (P18506 whole entry): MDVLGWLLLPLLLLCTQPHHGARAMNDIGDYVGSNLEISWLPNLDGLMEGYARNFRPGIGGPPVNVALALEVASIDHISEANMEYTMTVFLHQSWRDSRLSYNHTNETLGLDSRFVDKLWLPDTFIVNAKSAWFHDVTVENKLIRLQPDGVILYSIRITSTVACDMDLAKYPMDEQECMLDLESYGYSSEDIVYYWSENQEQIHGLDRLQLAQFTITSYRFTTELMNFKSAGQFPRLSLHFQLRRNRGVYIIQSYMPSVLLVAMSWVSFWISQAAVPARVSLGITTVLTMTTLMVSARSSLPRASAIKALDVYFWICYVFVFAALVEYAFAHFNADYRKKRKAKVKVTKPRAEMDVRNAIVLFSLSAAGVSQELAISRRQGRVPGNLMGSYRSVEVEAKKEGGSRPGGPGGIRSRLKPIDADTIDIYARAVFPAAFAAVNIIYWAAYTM
Sequence (P28471 whole entry): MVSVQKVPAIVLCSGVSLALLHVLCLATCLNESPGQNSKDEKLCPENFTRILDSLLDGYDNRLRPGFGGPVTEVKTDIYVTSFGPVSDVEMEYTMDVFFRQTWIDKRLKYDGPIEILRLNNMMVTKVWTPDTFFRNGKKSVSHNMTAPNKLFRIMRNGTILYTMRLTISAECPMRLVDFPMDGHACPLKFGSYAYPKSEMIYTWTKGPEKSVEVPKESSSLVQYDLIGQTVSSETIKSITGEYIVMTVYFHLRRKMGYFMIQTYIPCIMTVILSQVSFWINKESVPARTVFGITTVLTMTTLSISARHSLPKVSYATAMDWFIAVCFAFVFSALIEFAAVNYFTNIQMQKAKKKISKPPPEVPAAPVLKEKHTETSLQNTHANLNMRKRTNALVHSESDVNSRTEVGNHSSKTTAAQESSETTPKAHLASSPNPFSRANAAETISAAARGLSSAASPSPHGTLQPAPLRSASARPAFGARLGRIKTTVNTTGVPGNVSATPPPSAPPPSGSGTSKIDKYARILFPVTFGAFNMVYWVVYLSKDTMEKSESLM
Sequence (P63079 whole entry): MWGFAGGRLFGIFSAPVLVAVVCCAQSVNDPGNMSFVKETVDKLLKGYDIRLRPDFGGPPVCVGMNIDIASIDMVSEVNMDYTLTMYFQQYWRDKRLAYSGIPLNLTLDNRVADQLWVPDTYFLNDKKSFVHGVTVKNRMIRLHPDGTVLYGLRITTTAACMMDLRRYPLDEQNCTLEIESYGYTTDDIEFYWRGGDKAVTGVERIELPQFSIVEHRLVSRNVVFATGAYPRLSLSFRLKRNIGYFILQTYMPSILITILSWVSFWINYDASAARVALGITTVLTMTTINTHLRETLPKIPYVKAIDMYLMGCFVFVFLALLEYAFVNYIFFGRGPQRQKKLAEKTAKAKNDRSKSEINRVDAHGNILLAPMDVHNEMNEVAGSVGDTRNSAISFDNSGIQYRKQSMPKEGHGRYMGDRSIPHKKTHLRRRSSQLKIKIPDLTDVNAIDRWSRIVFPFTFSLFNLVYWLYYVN
Experiment: Displacement of [3H]EBOB from rat GABA-A receptor alpha4beta3delta expressed in HEK293 cell membranes after 90 mins by liquid scintillation counting analysis
MEASURE: pIC50
# reply with the number alone; pIC50 is -log10 of concentration in mol/L

Please look up its pIC50: `O=C(Nc1c(-c2cccs2)nc2c(Br)cc(Br)cn12)c1ccc(Cl)cc1`
6.29

---

Biological target: Gamma-aminobutyric acid receptor subunit alpha-4/beta-3/gamma-2 (Rattus norvegicus, UniProt P18508+P28471+P63079)
Sequence (P18508 whole entry, one chain of several): as the sequence (P18508 whole entry, one chain of several) above
Assay: Displacement of [3H]EBOB from rat GABA-A receptor alpha4beta3gamma2 expressed in HEK293 cell membranes after 90 mins by liquid scintillation counting analysis
MEASURE: IC50
Write the quantity with the unit trailing the number.

Please look up its IC50: `O=C(Nc1c(-c2cccs2)nc2c(Br)cc(Br)cn12)c1ccc(Cl)cc1`
3.29 µM

---

Molecular target: Gamma-aminobutyric acid receptor subunit alpha-6/beta-3 (Rattus norvegicus, UniProt P30191+P63079)
Sequence (P30191 whole entry, one chain of several): as the sequence (P30191 whole entry, one chain of several) above
Experiment: Displacement of [3H]EBOB from rat GABA-A receptor alpha6beta3 expressed in HEK293 cell membranes after 90 mins in presence of GABA by liquid scintillation counting analysis
MEASURE: pIC50
# reply with the number alone; pIC50 is -log10 of concentration in mol/L

Worked examples follow.
Please look up its pIC50: `O=C(Nc1c(-c2cccs2)nc2c(Br)cc(Br)cn12)c1ccc(OCCCCF)cc1`
5.89

Please look up its pIC50: `CCCCOc1ccc(C(=O)Nc2c(-c3cccs3)nc3ccc(Br)cn23)cc1`
5.39

// moving on: another record for pIC50
Please look up its pIC50: `O=C(Nc1c(-c2cccs2)nc2c(Br)cc(Br)cn12)c1ccc(Cl)cc1`
6.02

---

Molecular target: Gamma-aminobutyric acid receptor subunit alpha-6/beta-3/delta (Rattus norvegicus, UniProt P18506+P30191+P63079)
Sequence (P30191 whole entry, one chain of several): as the sequence (P30191 whole entry, one chain of several) above
Assay: Displacement of [3H]EBOB from rat GABA-A receptor alpha6beta3delta expressed in HEK293 cell membranes after 90 mins in presence of GABA by liquid scintillation counting analysis
pIC50 by entry:
# reply with the number alone; pIC50 is -log10 of concentration in mol/L

Worked examples follow.
Please look up its pIC50: `O=C(Nc1c(-c2cccs2)nc2c(Br)cc(Br)cn12)c1ccc(OCCCCF)cc1`
6.31

Please look up its pIC50: `CCCCOc1ccc(C(=O)Nc2c(-c3cccs3)nc3ccc(Br)cn23)cc1`
6.06

// moving on: another record for pIC50
Please look up its pIC50: `O=C(Nc1c(-c2cccs2)nc2c(Br)cc(Br)cn12)c1ccc(Cl)cc1`
6.43
